B1: ZBTB22 (parent)
chain: AVLAASSPYFHDQVLLKGMTSISL

- Variants of: B1
- method: protein stability index of a GFP-peptide fusion (GPS, HEK-293T) (PSI 1-6); higher = more stable;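 note: lentivirally expressed fusions sorted by FACS into six bins by GFP to DsRed ratio, PSI derived from sequencing read proportions per bin multiplied by bin number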
- experimental.parameters: c terminus: a fixed tail appended
Assign class by protein stability index: not lower than 3 means fulfilled; lower than 3 means not fulfilled.

Some solved entries appear below for comparison.
### Prompt Determine whether measured protein stability index meets or exceeds 3 for "T20I"
### Response not fulfilled

### Prompt Determine whether measured protein stability index meets or exceeds 3 for "M19T"
### Response not fulfilled

### Prompt Determine whether measured protein stability index meets or exceeds 3 for "T20M"
### Response fulfilled

### Prompt Determine whether measured protein stability index meets or exceeds 3 for "G18H"
### Response not fulfilled

### Prompt Determine whether measured protein stability index meets or exceeds 3 for "A4G"
### Response not fulfilled

### Prompt Determine whether measured protein stability index meets or exceeds 3 for "L3E"
### Response not fulfilled

### Prompt Determine whether measured protein stability index meets or exceeds 3 for "Q13A"
### Response fulfilled

### Prompt Determine whether measured protein stability index meets or exceeds 3 for "A5H"
### Response not fulfilled

### Prompt Determine whether measured protein stability index meets or exceeds 3 for "L16C"
### Response fulfilled

### Prompt Determine whether measured protein stability index meets or exceeds 3 for "Q13P"
### Response not fulfilled

Further cases:
### Prompt Determine whether measured protein stability index meets or exceeds 3 for "A1K"
### Response fulfilled

### Prompt Determine whether measured protein stability index meets or exceeds 3 for "Y9A"
### Response not fulfilled

### Prompt Determine whether measured protein stability index meets or exceeds 3 for "S23C"
### Response not fulfilled

### Prompt Determine whether measured protein stability index meets or exceeds 3 for "P8D"
### Response not fulfilled

Values from the supplement of paper PMC10567573
